- Procedure Summary: DUSP6 inhibitors restoring Erk phosphorylation by chemical complementation, primary imaging in DUSP6-transfected HeLa (AID 609)
- Measurement Parameters: HeLa MKP-3 transfected, phospho-Erk imaging KS statistic; measured here: cell density z-score; at 10 µM; cells stimulated with TPA for 15 min
Respond with Condition met for z-score values of 0.9 and above, Condition not met for values below.

The following compounds have reported results that may help.
Compound | Assigned Category
CCOc1ccc2nc(NC(NC(=O)CC)(C(=O)OC)C(F)(F)F)sc2c1 (stereo unspecified) | Condition not met
CC(=O)/C(C#N)=C1\NC(=O)C(Cc2ccccc2Cl)S1 (stereo unspecified) | Condition met
CCN(CC)C(=O)COn1c(SCC(=O)N(CC)CC)nc2ccccc2c1=O | Condition not met
COCCNc1oc(-c2ccc(F)cc2)nc1C#N | Condition met
O=C(NCCCn1ccnc1)c1cccnc1 | Condition not met

// query Hello, I need to know if O=C(Nc1ccccn1)c1ccc(=O)[nH]n1 has measured z-score not below 0.9. Thanks!
// result Condition not met

// query Decide: is the reported value of z-score for COC(=O)C(NC(=O)c1ccco1)(Nc1ccc(Br)cn1)C(F)(F)F (stereo unspecified) equal to or greater than 0.9?
// result Condition not met

// query Does the reported z-score for C=CCOc1ccc(C2/C(=C(\O)c3ccc(F)cc3)C(=O)C(=O)N2CCCN(C)C)cc1 (stereo unspecified) fall at or above the 0.9 mark?
// result Condition met

----------
- Procedure Summary: inhibitors of E-selectin induction by TNFa, primary screen, imaging, HUVEC, immunofluorescence, MLSMR starter and 10KST1 sets (AID 487);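 also: signal is fraction of cell area covered by stained E-selectin grains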
- Measurement Parameters: HUVEC TNFalpha-induced E-selectin immunofluorescence imaging, at 2 µM; stronger effect = higher value
Active and inactive are the calls of the source.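 How the source made its calls: active means visually confirmed hit in the image check and inhibition above 20%; inconclusive means visually confirmed hit but inhibition not above 20%; inactive means no visual hit in the image check.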
Measured inhibition, listed per entry.

Reference set (10 entries):
Compound | inhibition
COc1cc(NC(=O)CSCc2cnn(-c3ccccc3)c2-n2cccc2)cc(OC)c1 | -32% (inactive)
CCOC(=O)N1CCN(c2c(N3CCN(c4ccccc4OC)CC3)c(=O)c2=O)CC1 | -66.1% (inactive)
CC(C)CN(CC(C)C)C(=O)CS(=O)(=O)Cc1ccccc1 | -51.3% (inactive)
CN(Cc1ccccc1)c1nc2c(c(=O)[nH]c(=O)n2C)n1Cc1ccccc1Cl | -18.5% (inactive)
CSc1nc(C)c2c(c1C#N)CCCC2 | -266% (inactive)
CC(C)(C)NC(=O)CSc1nnc(-c2ccccn2)n1-c1ccccc1 | -36.6% (inactive)
Cc1nc2ccc(C(=O)c3ccccc3)cc2[nH]1 | -8.7% (inactive)
CCC(C)(C(=O)NC1CCCC1)N(C(=O)c1cnccn1)c1c(C)n(C)n(-c2ccccc2)c1=O (stereo unspecified) | 15.6% (inactive)
Cc1ccc(NC(=O)CCN2CCc3ccccc3C2)cc1 | -44.8% (inactive)
CCOC(=O)C1CCN(c2ncnc3c2cnn3-c2ccc(Cl)cc2)CC1 | -82.8% (inactive)

// query // returns reported inhibition for input Cc1cc(C)n(-c2ncnc3sc(C)c(C)c23)n1
// result -64.7% (inactive)

----------
Recorded z-score by entry
- Procedure Summary: DUSP6 inhibitors restoring Erk phosphorylation by chemical complementation, primary imaging in DUSP6-transfected HeLa (AID 609)
- Measurement Parameters: HeLa MKP-3 transfected, phospho-Erk imaging KS statistic; measured here: nuclear pErk red intensity z-score; at 10 µM; stronger effect = higher value; cells stimulated with TPA for 15 min
Could you keep your reply to the number by itself?

Compound | Readout Kind | Result
CNc1oc(-c2cccs2)nc1C#N | z-score | 0.102
CCOCCn1c(SCc2c(F)cccc2Cl)nc2c1c(=O)[nH]c(=O)n2C | z-score | 0.197
CC1(C)Cc2c(C#N)c(OCC(=O)c3ccccc3)nc(-c3ccoc3)c2CO1 | z-score | -0.876

// query What z-score value was documented for this compound, O=C(/C=N/O)NCCCN1CCOCC1 ?
// result 2.77

// query Query: z-score; subject: C[N+]1(CCNC(=O)/C=N/O)CCCCC1
// result 0.488

// query Please report the recorded z-score for Cc1cc(Nc2ccc3ccccc3c2)n2ncnc2n1 .
// result -1.5

// query Item CCOC(=O)CNC(=O)CNC(=O)c1ccc(OCC(C)C)cc1 has what recorded z-score?
// result 0.093

The measured values listed here are drawn from PubChem BioAssay.
